- Tested on: Staphylococcus aureus
- Experimental details: Antibacterial activity against Staphylococcus aureus SA1199 after 18 to 24 hrs by broth dilution method
- Assay type: functional
Measured quantity: MIC
Could you write the number and then its unit?

Guide cases for MIC, answers given:
Return reported MIC; argument: CCCCCC[P+](CCCCCC)(CCCCCC)CCCCCCOCc1ccc(N(c2ccccc2)c2ccccc2)cc1.[Cl-]
2 µg/mL

Return reported MIC; argument: CCCCCC[P+](CCCCCC)(CCCCCC)CCCCCCOCc1ccc(N(c2ccc(COCCCCCC[P+](CCCCCC)(CCCCCC)CCCCCC)cc2)c2ccc(COCCCCCC[P+](CCCCCC)(CCCCCC)CCCCCC)cc2)cc1.[Cl-].[Cl-].[Cl-]
2 µg/mL

Return reported MIC; argument: CCCCCC[P+](CCCCCC)(CCCCCC)CCCCCCOCc1ccc(N(c2ccccc2)c2ccccc2)cc1.[Br-]
2 µg/mL

Return reported MIC; argument: CCCCCC[P+](CCCCCC)(CCCCCC)CCCCCCOCc1ccc(N(c2ccccc2)c2ccc(COCCCCCC[P+](CCCCCC)(CCCCCC)CCCCCC)cc2)cc1.[Cl-].[Cl-]
2 µg/mL

Return reported MIC; argument: CCCC[P+](CCCC)(CCCC)CCCCCCOCc1ccc(N(c2ccccc2)c2ccccc2)cc1.[Cl-]
0.5 µg/mL

Return reported MIC; argument: CCCCCCCC[P+](CCCCCCCC)(CCCCCCCC)CCCCCCOCc1ccc(N(c2ccccc2)c2ccccc2)cc1.[Cl-]
8 µg/mL

Pending compound:
Return reported MIC; argument: CCCCCC[P+](CCCCCC)(CCCCCC)CCCCCCCCCCOCc1ccc(N(c2ccccc2)c2ccccc2)cc1.[Br-]
1 µg/mL
